molecular target: FRMPD2_1, Q68DX3; assay: holdup assay; design: key: below the threshold = too weak to quantify, mostly under pKd 3.1 to 4; conditions: plain residues with an end cap or a label only (N-terminal biotin on a linker: ahx)
Sequence (Q68DX3 770-861): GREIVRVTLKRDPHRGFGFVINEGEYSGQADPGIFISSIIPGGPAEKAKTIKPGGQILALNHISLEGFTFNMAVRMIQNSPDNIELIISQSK
parameter measured: pKd

binder: HNAFLSVTTV [PDZRN4, Q6ZMN7]
endpoint result: below the threshold
//
binder: GYDWGPATDL [TJP3, O95049]
endpoint result: below the threshold
//
binder: TVICWPGSLV [LNX2, Q8N448]
endpoint result: 4.13
//
binder: ESLLLGPSNF [SHROOM4, Q9ULL8]
endpoint result: below the threshold
//
binder: PSASCAVTAA [PDLIM4, P50479;P50479-2]
endpoint result: below the threshold
//
binder: NRKREIFSNF [NHERF2, Q15599]
endpoint result: below the threshold
//
binder: RRRKRKRTYL [HPV49-L2, P36762]
endpoint result: 3.78
//
binder: SDSSGQEYSL [KCTD3, Q9Y597]
endpoint result: below the threshold
//
binder: RAVEEEESRF [PSCDBP, O60759]
endpoint result: below the threshold
//
binder: LSDPSVSTVV [GRIN1, Q05586;Q05586-2]
endpoint result: below the threshold
